testSystem: FLT3 (Homo sapiens)
Construct: FLT3(DKIN); made in house
Sequence (P36888 610-943 limits assumed): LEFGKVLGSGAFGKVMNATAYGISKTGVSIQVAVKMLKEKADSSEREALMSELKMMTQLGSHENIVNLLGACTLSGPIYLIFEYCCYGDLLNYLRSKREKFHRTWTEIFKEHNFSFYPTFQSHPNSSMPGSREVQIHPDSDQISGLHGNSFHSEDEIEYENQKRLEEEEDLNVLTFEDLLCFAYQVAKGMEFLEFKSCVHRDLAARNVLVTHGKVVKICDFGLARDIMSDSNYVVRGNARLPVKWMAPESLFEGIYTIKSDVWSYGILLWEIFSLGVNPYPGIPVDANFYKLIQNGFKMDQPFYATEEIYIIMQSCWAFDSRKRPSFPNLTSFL
procedureText: Binding constant (Kd) measurement, phage-displayed kinase competition binding assay
experimentalConditions: FLT3(DKIN) construct
observable: Binding Assay: FLT3(DKIN)

Below are worked cases with known answers.
Give the measured Binding Assay: FLT3(DKIN) of CC(C)(C)c1cc(NC(=O)Nc2ccc(Nc3nc(N)nc4[nH]cnc34)cc2)no1 .
+ + + +

Lookup CC(C)(C)c1cc(NC(=O)Nc2ccc(NC(=O)c3cc4cccc5c4n(c3=O)CC5)cc2)no1
+ + + +

Can you handle CC(C)(C)c1cc(NC(=O)Nc2ccccc2)no1 [Compound A34] next?
+ + +

Same for CC(C)(C)c1cc(NC(=O)Nc2ccc(O)cc2)no1
+ + +

CC(C)(C)c1cc(NC(=O)Nc2cccc(Cl)c2)no1 , same question.
+ + +

Further cases:
Recorded Binding Assay: FLT3(DKIN) for Cn1nc(C(C)(C)C)cc1NC(=O)Nc1ccc(F)cc1 , please?
+ + +

// next record CC1CN(CCOc2ccc(NC(=O)Nc3cc(C(C)(C)C)on3)cc2)CC(C)O1 (stereo not shown)
+ + +

Then what about the compound C/C=C/C(=O)Nc1ccc(NC(=O)Nc2cc(C(C)(C)C)on2)cc1 ?
+ + +

Ok, now CC(C)(C)c1cc(NC(=O)Nc2ccc(Cl)cc2)on1
+ + +

Same lookup for C[S+]([O-])c1ccc(NC(=O)Nc2cc(C(C)(C)C)on2)cc1 (stereo not shown) , please.
+ + +

Further, for CC(C)(C)c1cc(NC(=O)Nc2ccc(OCCc3ccc(F)cc3)cc2)no1 ?
+ + + +

And for Cc1ccc(-n2nc(C(C)(C)C)cc2NC(=O)Nc2ccc(O)cc2)cc1 ?
+ + +

Field entry: CC(C)(C)c1cc(NC(=O)Nc2ccc(NC(=O)c3cc4cccnc4nc3C(F)(F)F)cc2)no1
+ + +

Next record, please: Cc1ccc(-c2cc(C(=O)Nc3ccc(NC(=O)Nc4cc(C(C)(C)C)on4)cc3)c(C)o2)cc1
+ + + +

What about COC(=O)c1ccc(C(=O)Nc2ccc(NC(=O)Nc3cc(C(C)(C)C)on3)cc2)nc1 [Compound N12] ?
+ + + +

Same question, COc1ccc(N(N)C(=O)Nc2cc(C(C)(C)C)on2)cc1 this time
+ + +

How about CC(C)(C)c1cc(NC(=O)Nc2ccc(C(=O)Nc3ccccc3)cc2)no1 ?
+ + + +

Moving on to the next compound: CC(C)(C)c1cc(NC(=O)Nc2ccc(NC(=O)c3cc(Cl)cc(Cl)c3)cc2)no1
+ + +

Let us now turn to COc1cc(OC)nc(N(C)c2cccc(C(=O)Nc3ccc(NC(=O)Nc4ccon4)cc3)c2)n1
+ + + +

Query Cc1nc(C(=O)Nc2ccc(NC(=O)Nc3cc(C(C)(C)C)on3)cc2)c(C(F)(F)F)o1 next
+ + + +

Same question for COc1ccc(-c2noc(-c3ccc(NC(=O)Nc4cc(C(C)(C)C)on4)cc3)n2)c2ccccc12 please.
+ + +

Continue with CC(C)(C)c1cc(NC(=O)Nc2ccc(OCCN3CCC(O)CC3)cc2)no1
+ + +

Entry COc1cccc(-c2ccc(C(=O)Nc3ccc(NC(=O)Nc4cc(C(C)(C)C)on4)cc3)o2)c1 please
+ + + +

Another compound to check: CSc1ccc(NC(=O)Nc2cc(C(C)(C)C)on2)cc1
+ + + +

// next record CC(C)(C)c1cc(NC(=O)Nc2ccc(NC(=O)c3cccnc3)cc2)co1
+ + + +

Cited source for all entries: patent US20050267182A1
